Data provenance: PubChem BioAssay (NCI)

Tested on: NCI-H460 lung
assay: NCI-60 one-dose screen, 48 h
condition: 10 µM unless noted
About 83,000 compounds went through this panel and 20% of them were active in at least one assay; those are over-represented in the sample as a whole. Calls of active or inactive are those of the source. How the source made its calls: active means growth percent below 10; inactive means the rest.
Outcomes: true = active, false = inactive

{"compound": "Cc1ncc(C(=O)Nc2ccc(CN3CCN(C)CC3)c(C(F)(F)F)c2)cc1C#Cc1cnc2cccnn12", "target-system": "NCI-H460 lung", "label-class": "true"}
{"compound": "COc1cccc(-c2nn(C(C)(C)C)cc2-c2ccnc(NCCCNS(=O)(=O)c3cccc4ccccc34)c2)c1", "target-system": "NCI-H460 lung", "label-class": "false"}
{"compound": "CN(C)S(=O)(=O)c1cccc(-c2nc3sc4c(c3c(=O)[nH]2)CCCC4)c1", "target-system": "NCI-H460 lung", "label-class": "true"}
{"compound": "CC(=O)O[C@H]1[C@@H]2OC(=O)C(CSc3ccccc3)[C@@H]2C[C@H]2O[C@]2(C)CC/C=C(\\C)CCC[C@@H]1C (stereo not given in full)", "target-system": "NCI-H460 lung", "label-class": "false"}
{"compound": "CN1CCN(c2nc(NCCCCNc3ccnc4cc(Cl)ccc34)c3ccccc3n2)CC1", "target-system": "NCI-H460 lung", "label-class": "false"}
{"compound": "COC(=O)c1cccc(NC(=O)c2ccc(-c3cccc(N)c3)o2)c1", "target-system": "NCI-H460 lung", "label-class": "false"}
{"compound": "CCCCCC(=O)Oc1ccc(/C(=C(\\C)c2ccc(OC)cc2)c2ccc(OCCN3CCCCC3)cc2)cc1", "target-system": "NCI-H460 lung", "label-class": "false"}
{"compound": "COc1cc(C(=O)/C=C/c2cccnc2Nc2ccc(Cl)cc2)cc(OC)c1OC", "target-system": "NCI-H460 lung", "label-class": "true"}
{"compound": "COc1ccc(/C=C/c2nc(-c3n[nH]c(=O)n3-c3ccccc3)c3ccccc3n2)cc1", "target-system": "NCI-H460 lung", "label-class": "false"}
{"compound": "Cc1cc(C)nc(SC2=C(Nc3cccc(Cl)c3)C(=O)N(Cc3ccccc3)C2=O)n1", "target-system": "NCI-H460 lung", "label-class": "false"}

----------
System: RXF 393 renal
assay: NCI-60 one-dose screen, 48 h
condition: 10 µM unless noted
Procedure: Cells are grown in 96 well plates and exposed to the test compound for 48 hours. Compounds are tested at a single concentration, which is 10^-5 M for most compounds. The reported endpoint is percent growth (GI% or GIPRCNT), where numbers from 0 - 100% represent growth inhibition, and numbers from -100% - 0 represent cell death. For example, a value of 40 represents 60% growth inhibition. A value of 0 means no net growth occurred over the course of the experiment. […]
About 83,000 compounds went through this panel and 20% of them were active in at least one assay; those are over-represented in the sample as a whole. The source made the active and inactive calls. The calls were made as follows: active = growth percent below 10; inactive = the rest.
Outcomes: T (active), F (inactive)

{"compound": "O=C(O)c1ccc(NC(=O)c2ccc(-c3cccc([N+](=O)[O-])c3)o2)cc1", "label-class": "F"}
{"compound": "O=C1/C(=C/c2cn(-c3ccccc3)nc2-c2ccccc2)SC(=S)N1CCc1ccccc1", "label-class": "F"}
{"compound": "OCC(O)c1nc2ccc3[nH]ncc3c2c2c1CCCC2 (stereo not given)", "label-class": "T"}
{"compound": "CN1CCN(c2nc(NCCCCNc3ccnc4cc(Cl)ccc34)c3ccccc3n2)CC1", "label-class": "T"}
{"compound": "COc1cc(-c2nc3ccccc3[nH]2)ccc1OCc1nnc(-c2ccc(CC(C)C)cc2)o1", "label-class": "F"}
{"compound": "CC(=O)O[C@H]1[C@@H]2OC(=O)C(CSc3ccccc3)[C@@H]2C[C@H]2O[C@]2(C)CC/C=C(\\C)CCC[C@@H]1C (stereo not given in full)", "label-class": "T"}
{"compound": "COc1ccc(S(=O)(=O)N2CC3(COC3)C2)cc1NC(=O)c1[nH]c(C)c2c1CCCCC2=O", "label-class": "F"}
{"compound": "C=CC(=O)Nc1cccc(Nc2nc(SC)nc(-c3cccc([N+](=O)[O-])c3)c2C#N)c1", "label-class": "F"}
{"compound": "Clc1ccc2c(NCCNc3nc(N4CCCCC4)nc4ccccc34)ccnc2c1", "label-class": "T"}
{"compound": "O=C(N(c1ccccc1)c1ccccc1)n1ccc2nc(Cl)nc(Cl)c21", "label-class": "F"}
{"compound": "Cc1ccc2c(C(C[N+](=O)[O-])c3ccco3)c(-c3ccccc3)[nH]c2c1 (stereo not given)", "label-class": "F"}
{"compound": "O=C(Cc1ccc(/C=C/C(=O)c2ncc[nH]2)cc1)Nc1ccc(F)cc1", "label-class": "F"}
{"compound": "C/C1=C\\CC[C@@]2(C)O[C@H]2[C@H]2OC(=O)C(CN3CCN(CC4C(=O)O[C@H]5[C@H]4CC/C(C)=C/CC[C@@]4(C)O[C@@H]54)CC3)[C@@H]2CC1 (stereo not given in full)", "label-class": "F"}
{"compound": "OC(c1cc2cc(Cl)c(Cl)cc2c2cc(C(F)(F)F)ccc12)C1CCCCN1 (stereo not given)", "label-class": "T"}
{"compound": "COc1ccc(CN2c3ccccc3Oc3ccccc32)cc1F", "label-class": "F"}
{"compound": "O=S(=O)(Nc1ccc(Cl)c(F)c1)c1ccc(-c2cnc(C3CC3)o2)cc1", "label-class": "T"}
{"compound": "COc1ccc(S(=O)(=O)N2CCN(C)CC2)cc1NC(=O)c1[nH]c(C)c2c1CCCCC2=O", "label-class": "F"}
{"compound": "CCOC(=O)c1c(CN2CCN(C)CC2)nc2ccc(Cl)cc2c1-c1ccccc1", "label-class": "F"}
{"compound": "COc1ccc2c(c1)C(=O)/C(=C/c1cccnc1)CC2", "label-class": "F"}
{"compound": "C=CC(=O)Nc1cccc(-c2nc(SC)nc(NCc3ccccc3)c2C#N)c1", "label-class": "F"}
{"compound": "CN(CCCCCl)P(=O)(OCc1ccc([N+](=O)[O-])o1)C(F)(F)c1ccc(CC(=O)NC[C@@H](O)/C=C\\[C@@H](O)[C@H](CO)Cc2ccccc2)cc1 (stereo not given in full)", "label-class": "F"}
{"compound": "Cc1cn2c(/C=C3/C(=O)Nc4c3ccc3ccccc43)c(C(F)(F)F)nc2s1", "label-class": "T"}
{"compound": "N#CCCN=Nc1c(O)[nH]c2ccc([N+](=O)[O-])cc12", "label-class": "F"}
{"compound": "Cn1c(NCCc2ccc(O)c(O)c2)nc2c1c(=O)n(Cc1ccc(Cl)c(Cl)c1)c(=O)n2C", "label-class": "F"}
{"compound": "CC(=O)c1cc2c(N)c(C(=O)Nc3cccc(F)c3C)sc2nc1C", "label-class": "F"}
{"compound": "Cn1cc(-c2nonc2-c2c[nH]c3ccccc23)c2cccnc21", "label-class": "F"}
{"compound": "CC(O)CN(CC(C)O)c1ccc2c(c1)Cc1cc([N+](=O)[O-])ccc1-2 (stereo not given)", "label-class": "F"}
{"compound": "Cc1ncc(C(=O)Nc2ccc(CN3CCN(C)CC3)c(C(F)(F)F)c2)cc1C#Cc1cnc2cccnn12", "label-class": "T"}
{"compound": "CCOC(=O)c1c(C(=O)OCC)c2cc(-c3ccn4c(C(=O)c5ccccc5)c(C(=O)OCC)c(C(=O)OCC)c4c3)ccn2c1C(=O)c1ccccc1", "label-class": "F"}
{"compound": "CC1(C)CC[C@]2(C(=O)Nc3ccccn3)CC[C@]3(C)C(=CC[C@@H]4[C@@]5(C)C/C(=C/c6cccnc6)C(=O)C(C)(C)[C@@H]5CC[C@]43C)[C@H]2C1", "label-class": "F"}
{"compound": "Nc1n[nH]c2ccc([C@@H]3Nc4ccc5[nH]ncc5c4[C@H]4C5C=CC(C5)[C@@H]34)cc12 (stereo not given in full)", "label-class": "F"}
{"compound": "C=CCSSc1ncnc2c1ncn2C1OC(CO)C(O)C1O (stereo not given)", "label-class": "F"}
{"compound": "C#CCOc1ccc2ncnc(Nc3cccc(CNC(=O)CCl)c3)c2c1", "label-class": "F"}
{"compound": "CC(C)C1=C[C@@]23CC[C@@H]4[C@](C)(CCC[C@@]4(C)C(=O)N4CCCNCC4)[C@H]2C[C@@H]1[C@H]1C(=O)CCC(=O)[C@H]13", "label-class": "F"}
{"compound": "CCN=C1C=CC(=C(c2ccc(N)cc2)c2ccc(N(CC)CC)c(C)c2)C=C1", "label-class": "T"}

----------
Test system: MOLT-4 leukemia
assay: NCI-60 one-dose screen, 48 h (100 = growth as untreated, 0 = no growth, -100 = all killed)
condition: 10 µM unless noted
This is part of a sample that, as a whole, favours compounds with a hit. Of some 83,000 tested, about 20% had one in any assay.
Form field: growth (one value per entry).

{"molecule": "CCN=C1C=CC(=C(c2ccc(N)cc2)c2ccc(N(CC)CC)c(C)c2)C=C1", "measure-unit": "%", "growth": -4.13}
{"molecule": "COc1nc2c(c(=O)n1C)CN(Cc1ccccc1)C=N2", "measure-unit": "%", "growth": 105}
{"molecule": "Cc1nc(Nc2ccc(F)c(Cl)c2)sc1C(=O)O", "measure-unit": "%", "growth": 6.93}
{"molecule": "CCOc1ccc(-n2nc(C(=O)Nc3cc(OC)c(OC)c(OC)c3)nc2-c2cc(OC)c(OC)c(OC)c2)cc1", "measure-unit": "%", "growth": 67.5}
{"molecule": "COc1cc(/C=C/C(=O)c2c(C)oc3nc[nH]c(=O)c23)cc(OC)c1OC", "measure-unit": "%", "growth": 68.4}
{"molecule": "CCN(CC)c1ccc(-c2cc(-c3cc(OC)c(OC)c(OC)c3)nc(N3CCOCC3)c2C#N)cc1", "measure-unit": "%", "growth": 18.8}
{"molecule": "N#Cc1nnn(-c2ccc(S(N)(=O)=O)cc2)c1NCC(=O)c1ccccc1", "measure-unit": "%", "growth": 89.9}
{"molecule": "NCCNc1nc(Nc2ccc(-c3nc4ccccc4[nH]3)cc2)c2cn[nH]c2n1", "measure-unit": "%", "growth": 8.24}
{"molecule": "c1csc(C2=NN3C(C2)c2ccccc2OC3c2ccncc2)c1 (stereo unspecified)", "measure-unit": "%", "growth": 94.4}
{"molecule": "Clc1ccc2c(NCCCNc3nc(-n4ccnc4)nc4ccccc34)ccnc2c1", "measure-unit": "%", "growth": 68}
{"molecule": "COc1ccc2c(c1)C(=O)/C(=C/c1ccccn1)CC2", "measure-unit": "%", "growth": 21.5}
{"molecule": "Cn1c(NCCc2ccc(O)c(O)c2)nc2c1c(=O)n(Cc1ccc(Cl)c(Cl)c1)c(=O)n2C", "measure-unit": "%", "growth": 11.8}
{"molecule": "Cn1c(=O)[nH]c(=O)c2nc(CCC(=O)NCCC(=O)O)c(=O)[nH]c21", "measure-unit": "%", "growth": 106}
{"molecule": "O=C(Nc1ccc(Cl)cc1)c1cc2cc(F)ccc2cc1O", "measure-unit": "%", "growth": 7.89}
{"molecule": "CCCn1c(=O)[nH]c(N)c([C@H]2c3ccccc3Oc3[nH]c(=O)n(CCC)c(=O)c32)c1=O", "measure-unit": "%", "growth": 39.5}
{"molecule": "CCNC(=O)Oc1ccc(/C(=C(\\C)c2ccc(Cl)cc2)c2ccc(OCCN(CC)CC)cc2)cc1", "measure-unit": "%", "growth": 7.99}
{"molecule": "CN(C)c1ccc(NC(=O)c2ccc(/C=C/C(=O)c3ncc[nH]3)cc2)cc1", "measure-unit": "%", "growth": 27.1}
{"molecule": "CC(O)CN1CC(O)=C(c2nc3ccccc3s2)C1=N (stereo unspecified)", "measure-unit": "%", "growth": 103}
{"molecule": "CCCCN1CCCn2c1nc1c2c(=O)n(CCC)c(=O)n1CCC", "measure-unit": "%", "growth": 103}
{"molecule": "O=c1ccccc(-c2ccc(-c3ccco3)cc2)c1O", "measure-unit": "%", "growth": 7.73}
{"molecule": "C/C1=C\\CC[C@@]2(C)O[C@H]2[C@H]2OC(=O)C(CN3CCN(CC4C(=O)O[C@H]5[C@H]4CC/C(C)=C/CC[C@@]4(C)O[C@@H]54)CC3)[C@@H]2CC1 (stereo partly specified)", "measure-unit": "%", "growth": 84.3}
{"molecule": "C[n+]1ccccc1/C=C/c1ccc2cccc(O)c2n1", "measure-unit": "%", "growth": 95.2}
{"molecule": "COc1cc2nc(N3CCCC3)nc(NCc3ccccc3)c2cc1OC", "measure-unit": "%", "growth": 35.4}
{"molecule": "COc1cccc(-c2nc3sccn3c2-c2ccnc(NCCNS(=O)(=O)c3ccccc3)c2)c1", "measure-unit": "%", "growth": 12}
{"molecule": "O=C(Cn1cccc(Nc2ccccc2)c1=O)Nc1ccccc1", "measure-unit": "%", "growth": 110}
{"molecule": "CC(C)(O)c1cn(CCCCN2C(=O)C(=O)c3ccccc32)nn1", "measure-unit": "%", "growth": 94.6}
{"molecule": "COc1cc2c(cc1OC)C(Sc1ccc(SC)cc1)c1c(nc(N)c(C#N)c1N)O2 (stereo unspecified)", "measure-unit": "%", "growth": -26.3}
{"molecule": "FC(F)(F)c1[nH]ncc1-c1nc2ccc3n[nH]c(C#Cc4cccnc4)c3c2c2c1CCCC2", "measure-unit": "%", "growth": 14.9}
{"molecule": "CNC(=O)c1cc(Oc2ccc(NC(=O)Nc3ccc(Cl)c(OC(F)(F)F)c3)c(F)c2)ccn1", "measure-unit": "%", "growth": 20.2}
{"molecule": "Cc1ccc(C2Oc3ccccc3C3CC(c4cccs4)=NN32)cc1 (stereo unspecified)", "measure-unit": "%", "growth": 97.5}
{"molecule": "c1ccc(-c2c(-c3ccccc3)[n+](Cc3ccc4ccccc4c3)c(-c3ccc(-c4nc5ccccc5s4)cc3)n2Cc2ccc3ccccc3c2)cc1", "measure-unit": "%", "growth": -51.9}
